Just for reference, patent US8586588B2 is where these values come from.

Measured melting point of individual entries
Where a name gives a salt, the structure may show the parent alone.
observable: melting point

[[record]]
compound = "CC(C)n1nc(-c2ccc(OCCCN3[C@H](C)CC[C@H]3C)cc2)c2sccc2c1=O (as salt: HCl)"
value = "106 °C (dec.)"

[[record]]
compound = "O=C1CCC(c2ccc(OCCCN3CCCCC3)c(F)c2)=NN1"
value = "164 to 166 °C"

[[record]]
compound = "Cn1nc(-c2ccc(OCCCN3CCCC3)cc2)c2ccccc2c1=O (as salt: HCl)"
value = "201 to 203 °C"

[[record]]
compound = "CC1(C)CC(c2ccc(OC3CCN(C4CCC4)CC3)c(F)c2)=NNC1=O"
value = "147 to 149 °C"

[[record]]
compound = "Cn1nc(-c2ccc(OCC3CCN(C(=O)OC(C)(C)C)CC3)cc2)c2ccccc2c1=O"
value = "167 to 169 °C"

[[record]]
compound = "O=c1ccc(-c2ccc(OC3CCN(C4CCC4)CC3)nc2)nn1-c1ccccn1 (as salt: HCl)"
value = "261 to 262 °C"

[[record]]
compound = "C[C@@H]1CCCN1CCCOc1c(F)cc(C2=NNC(=O)CC2)cc1F"
value = "102 to 104 °C"

[[record]]
compound = "O=C1NN=C(c2ccc(OC3CCN(C4CCCC4)CC3)cc2)C2CC12 (centres unmarked) (as salt: HCl)"
value = "288 to 290 °C"


* * *

assayed target: rat histamine H3 receptor (Rattus norvegicus)
Construct: encoding the entire 445-amino-acid rat histamine H3 receptor; expressed in transfected cells
Sequence (Q9QYN8 whole entry): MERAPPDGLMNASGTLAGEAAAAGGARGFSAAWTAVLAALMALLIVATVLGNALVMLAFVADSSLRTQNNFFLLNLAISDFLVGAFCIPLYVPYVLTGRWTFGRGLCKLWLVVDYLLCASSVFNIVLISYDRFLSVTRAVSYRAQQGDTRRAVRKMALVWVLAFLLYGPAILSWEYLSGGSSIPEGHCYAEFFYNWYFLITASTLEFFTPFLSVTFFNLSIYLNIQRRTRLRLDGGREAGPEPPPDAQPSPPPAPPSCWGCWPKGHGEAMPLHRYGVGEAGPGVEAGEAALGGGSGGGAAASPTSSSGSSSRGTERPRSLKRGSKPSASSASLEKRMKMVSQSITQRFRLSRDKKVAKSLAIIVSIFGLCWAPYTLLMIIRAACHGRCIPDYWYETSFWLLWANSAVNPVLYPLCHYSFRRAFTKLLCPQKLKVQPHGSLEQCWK
procedure summary: Rat H3 radioligand binding ([3H]-N-alpha-methylhistamine, CHO-A3 cell membranes, SPA)
reported conditions: Table B, binding constant as letter class; read-out: rat H3 Ki
observable: Ki

[[record]]
compound = "C[C@@H](COc1ccc(-c2cn[nH]c(=O)c2)cc1)CN1CCCCC1"
value = "101 to 500 nM"

[[record]]
compound = "C[C@@H]1CCCN1CCCOc1ccc(-c2ccc(=O)n(CC(F)(F)F)n2)cc1"
value = "0.1 to 100 nM"

[[record]]
compound = "Cc1cc(-c2ccc(OCCCN3CCC[C@H]3C)cc2)n[nH]c1=O"
value = "0.1 to 100 nM"

[[record]]
compound = "CN1N=C(c2ccc(OC3CCN(C4CCC4)CC3)cc2)C2CC2C1=O (stereo not drawn)"
value = "0.1 to 100 nM"

[[record]]
compound = "O=C1CCC(c2ccc(OC3CCN(C4CCC4)CC3)cc2F)=NN1"
value = "0.1 to 100 nM"

[[record]]
compound = "Cc1n[nH]c(=O)cc1-c1ccc(OCCCN2CCC[C@H]2C)cc1"
value = "0.1 to 100 nM"

[[record]]
compound = "O=c1ccc(-c2ccc(OCCCN3CCOCC3)cc2)n[nH]1"
value = "> 1000 nM"

[[record]]
compound = "O=c1ccc(-c2ccc(OC3CCN(C4CCCC4)CC3)cc2)n[nH]1"
value = "0.1 to 100 nM"

[[record]]
compound = "CC1CC(=O)NN=C1c1ccc(OCCCN2CCCCC2)cc1 (racemic)"
value = "0.1 to 100 nM"

[[record]]
compound = "C[C@@H]1CCCN1CCCOc1ccc(-c2ccc(=O)n(-c3ncccn3)n2)cc1"
value = "0.1 to 100 nM"

[[record]]
compound = "Cc1nn(-c2ccccn2)c(=O)cc1-c1ccc(OC2CCN(C3CCC3)CC2)cc1"
value = "0.1 to 100 nM"

[[record]]
compound = "Cc1onc2c(=O)[nH]nc(-c3ccc(OC4CCN(C5CCC5)CC4)cc3)c12"
value = "101 to 500 nM"

[[record]]
compound = "O=c1ccc(-c2ccc(O[C@@H]3CCN(C4CCC4)C3)cc2)n[nH]1"
value = "> 1000 nM"

[[record]]
compound = "COCn1ncc(OC)c(-c2ccc(OCCCN3CCC[C@H]3C)cc2)c1=O"
value = "0.1 to 100 nM"

[[record]]
compound = "CC1CC(=O)NN=C1c1ccc(OCCCN2CCC[C@H]2C)cc1 (single isomer, unassigned) [Example 195]"
value = "0.1 to 100 nM"

[[record]]
compound = "Cc1cc(OCCCN2CCC[C@H]2C)ccc1C1=NNC(=O)CC1"
value = "0.1 to 100 nM"

[[record]]
compound = "O=c1ccc(-c2ccc(OCCCN3CCCC3)cc2)n[nH]1"
value = "0.1 to 100 nM"

[[record]]
compound = "Cn1ncc(-c2ccc(OCCCN3CCCCC3)cc2)cc1=O"
value = "0.1 to 100 nM"


* * *

Counter-ions that a name gives are not always drawn.
melting point values, listed per item
observable: melting point

[[record]]
molecule = "C[C@H](COc1ccc(-c2ccc(=O)[nH]n2)cc1)CN1CCC[C@H]1C"
observable = "melting point"
value = "163 to 167 °C"

[[record]]
molecule = "O=C1CCC(c2ccc(OCCCN3CCCCC3)cc2)=NN1CC(F)(F)F"
observable = "melting point"
value = "87 to 89 °C"

[[record]]
molecule = "O=C1CCC(c2ccc(OC3CCN(C4CCCC4)CC3)cc2)=NN1C1CCC1"
observable = "melting point"
value = "100 to 104 °C"

[[record]]
molecule = "Cc1cc(-c2ccc(OCCCN3CCCCC3)cc2)nn(Cc2ccccc2)c1=O (as salt: HCl)"
observable = "melting point"
value = "232 to 233 °C"

[[record]]
molecule = "C[C@@H]1CCCN1CCCOc1ccc(-n2nc(-c3ccccc3)ccc2=O)cc1"
observable = "melting point"
value = "86 to 89 °C"

[[record]]
molecule = "C[C@@H](COc1ccc(-c2cn[nH]c(=O)c2)cc1)CN1CCC[C@H]1C"
observable = "melting point"
value = "130 to 133 °C"

[[record]]
molecule = "CCCn1nc(-c2ccc(OCCCN3CCC(N(C)C)CC3)cc2)c2sccc2c1=O (as salt: HCl)"
observable = "melting point"
value = "207 to 209 °C"

[[record]]
molecule = "O=c1c2ccsc2c(-c2ccc(OCCCN3CCCCC3)cc2)nn1Cc1ccc(Cl)cc1 (as salt: HCl)"
observable = "melting point"
value = "227 to 229 °C"

[[record]]
molecule = "O=c1c2ccccc2c(-c2ccc(OCCCN3CCCCC3)cc2)nn1Cc1ccc(Cl)cc1 (as salt: HCl)"
observable = "melting point"
value = "216 to 217 °C"

[[record]]
molecule = "C[C@@H]1CCCN1CCCOc1ccc(-c2nn(C)c(=O)c3ccccc23)cc1 (as salt: HCl)"
observable = "melting point"
value = "216 to 217 °C"

[[record]]
molecule = "O=c1cc(-c2ccc(OCCCN3CCCCCC3)cc2)cnn1-c1ccccn1 (as salt: HCl)"
observable = "melting point"
value = "230 to 232 °C"

[[record]]
molecule = "Cc1nn(C)c(=O)cc1-c1ccc(OCCCN2CCCCC2)cc1 (as salt: hydrochloride)"
observable = "melting point"
value = "210 to 211 °C"

[[record]]
molecule = "CC(C)n1nc(-c2ccc(OCCCN3CCC(N4CCCC4)CC3)cc2)c2sccc2c1=O (as salt: HCl)"
observable = "melting point"
value = "283 °C (dec.)"

[[record]]
molecule = "Cc1cccnc1-n1nc(C)c(-c2ccc(OCCCN3CCC[C@H]3C)cc2)cc1=O (as salt: hydrochloride)"
observable = "melting point"
value = "106 °C (dec.)"

[[record]]
molecule = "Cn1nc(-c2ccc(OCCCN3CCC[C@H]3CO)cc2)c2c(c1=O)CCCC2 (as salt: HCl)"
observable = "melting point"
value = "120 to 122 °C"

[[record]]
molecule = "C[C@@H]1CCCN1CCCOc1ccc(-c2ccc(=O)n(Cc3ccccc3)n2)cc1 (as salt: HCl)"
observable = "melting point"
value = "228 to 230 °C"


* * *

List of pKi values.
assayed target: human H3 receptor (Homo sapiens)
Construct: expressed in transfected cells
Sequence (Q9Y5N1 whole entry): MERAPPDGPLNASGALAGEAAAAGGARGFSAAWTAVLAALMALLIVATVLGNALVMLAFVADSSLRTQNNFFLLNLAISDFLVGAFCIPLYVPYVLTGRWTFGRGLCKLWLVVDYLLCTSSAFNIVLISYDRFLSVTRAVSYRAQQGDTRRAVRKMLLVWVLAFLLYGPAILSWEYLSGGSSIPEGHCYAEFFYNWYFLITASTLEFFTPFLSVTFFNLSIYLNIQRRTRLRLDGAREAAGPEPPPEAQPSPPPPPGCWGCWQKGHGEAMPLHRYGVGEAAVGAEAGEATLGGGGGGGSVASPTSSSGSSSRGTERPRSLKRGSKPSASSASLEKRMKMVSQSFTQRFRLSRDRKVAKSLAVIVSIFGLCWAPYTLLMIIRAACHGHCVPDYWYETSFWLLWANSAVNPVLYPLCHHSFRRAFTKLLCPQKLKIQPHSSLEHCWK
procedure summary: Human H3 radioligand binding ([3H]-N-alpha-methylhistamine, CHO cell membranes, SPA)
reported conditions: Table A, binding constant as letter class
pKi: −log10 of the molar value.
observable: pKi

[[record]]
chemical_string = "Cc1cc(-c2ccc(OCCCN3CCC[C@H]3C)cc2)nn(Cc2ccccc2)c1=O"
value = "7.00 to 10.00"

[[record]]
chemical_string = "CC(C)N1N=C(c2ccc(OCCCN3CCCCC3)cc2)CCC1=O"
value = "7.00 to 10.00"

[[record]]
chemical_string = "Cc1cc(-c2ccc(OCCCN3CCC[C@H]3C)cc2)nn(C(C)C)c1=O"
value = "7.00 to 10.00"

[[record]]
chemical_string = "Cn1nc(-c2ccc(OCC3CCN(CC4CC4)CC3)cc2)ccc1=O"
value = "6.30 to 7.00"

[[record]]
chemical_string = "Cn1nc(-c2ccc(OCC3CCN(C4CCC4)CC3)cc2)c2ccccc2c1=O"
value = "7.00 to 10.00"

[[record]]
chemical_string = "CC(C)n1nc(-c2ccc(OCCCN3[C@H](C)CC[C@H]3C)cc2)c2sccc2c1=O"
value = "7.00 to 10.00"

[[record]]
chemical_string = "CCCn1nc(-c2ccc(OCCCN3[C@H](C)CC[C@H]3C)cc2)c2sccc2c1=O"
value = "7.00 to 10.00"

[[record]]
chemical_string = "Cc1cc(-c2ccc(OCCCN3CCC[C@H]3C)cc2)nn(C)c1=O"
value = "7.00 to 10.00"

[[record]]
chemical_string = "CN1CCC(COc2ccc(-c3ccc(=O)n(C)n3)cc2)CC1"
value = "6.30 to 7.00"

[[record]]
chemical_string = "C[C@@H]1CCCN1CCCOc1ccc2c(c1)CCc1cc(=O)n(-c3ccccc3)nc1-2"
value = "7.00 to 10.00"

[[record]]
chemical_string = "CC(C)n1nc(-c2ccc(OCCCN3CCCC3)cc2)c2sccc2c1=O"
value = "7.00 to 10.00"

[[record]]
chemical_string = "Cn1nc(-c2ccc(OCC3CCNCC3)cc2)ccc1=O"
value = "< 6.00"

[[record]]
chemical_string = "Cn1nc(-c2ccc(OCCCN3CCCCC3)cc2)c2c(c1=O)CCCC2"
value = "7.00 to 10.00"

[[record]]
chemical_string = "C[C@@H]1CCCN1CCCOc1ccc(-c2nn(C)c(=O)cc2-c2ccccc2)cc1"
value = "7.00 to 10.00"

[[record]]
chemical_string = "CCCn1nc(-c2ccc(OCCCN3CCC[C@H]3C)cc2)c2sccc2c1=O"
value = "7.00 to 10.00"

[[record]]
chemical_string = "C[C@@H]1CCCN1CCCOc1ccc(-c2ccc(=O)n(C)n2)cc1"
value = "7.00 to 10.00"

[[record]]
chemical_string = "C[C@@H]1CCCN1CCCOc1ccc(-c2n[nH]c(=O)c3c2CCC3)cc1"
value = "7.00 to 10.00"

[[record]]
chemical_string = "Cn1nc(-c2ccc(OCC3CCN(C4CCCC4)CC3)cc2)ccc1=O"
value = "6.30 to 7.00"

[[record]]
chemical_string = "Cn1nc(-c2ccc(OC3CCNCC3)cc2)ccc1=O"
value = "6.00 to 6.30"

[[record]]
chemical_string = "Cn1nc(-c2ccc(OCCCN3CCCCCC3)cc2)c2ccccc2c1=O"
value = "7.00 to 10.00"

[[record]]
chemical_string = "Cn1nc(-c2ccc(OCCCN3CCCCC3)cc2)c(-c2ccccc2)cc1=O"
value = "7.00 to 10.00"

[[record]]
chemical_string = "COC[C@H]1CCCN1CCCOc1ccc(-c2nn(C(C)C)c(=O)c3ccsc23)cc1"
value = "< 6.00"

[[record]]
chemical_string = "COC[C@@H]1CCCN1CCCOc1ccc(-c2nn(C(C)C)c(=O)c3ccsc23)cc1"
value = "7.00 to 10.00"

[[record]]
chemical_string = "C[C@@H]1CCCN1CCCOc1ccc(C2=NN(C)C(=O)CC2)cc1"
value = "7.00 to 10.00"

[[record]]
chemical_string = "C[C@H](COc1ccc(-c2ccc(=O)n(C)n2)cc1)CN1CCC[C@H]1C"
value = "7.00 to 10.00"

[[record]]
chemical_string = "O=c1cc2c(nn1Cc1ccccc1)-c1ccc(OCCCN3CCCCC3)cc1CC2"
value = "7.00 to 10.00"

[[record]]
chemical_string = "Cn1nc(-c2ccc(OCCCN3CCCCC3)cc2)cc(Cc2ccccc2)c1=O"
value = "7.00 to 10.00"

[[record]]
chemical_string = "CCCn1nc(-c2ccc(OCCCN3CCC(N(C)C)CC3)cc2)c2sccc2c1=O"
value = "6.30 to 7.00"

[[record]]
chemical_string = "Cc1cc(-c2ccc(OCCCN3CCCCC3)cc2)nn(Cc2ccccc2)c1=O"
value = "7.00 to 10.00"

[[record]]
chemical_string = "Cn1nc(-c2ccc(OCCCN3CCCCC3)cc2)c2ccccc2c1=O"
value = "7.00 to 10.00"

[[record]]
chemical_string = "CC(C)N1CCC(Oc2ccc(-c3ccc(=O)n(C)n3)cc2)CC1"
value = "7.00 to 10.00"

[[record]]
chemical_string = "O=c1c2ccccc2c(-c2ccc(OCCCN3CCCCC3)cc2)nn1Cc1ccc(Cl)cc1"
value = "7.00 to 10.00"

[[record]]
chemical_string = "O=c1c2ccsc2c(-c2ccc(OCCCN3CCCCC3)cc2)nn1Cc1ccc(Cl)cc1"
value = "7.00 to 10.00"

[[record]]
chemical_string = "C[C@@H]1CCCN1CCCOc1ccc(C2=NN(Cc3ccccc3)C(=O)CC2)cc1"
value = "7.00 to 10.00"

[[record]]
chemical_string = "Cn1nc(-c2ccc(OCCCN3CCCCC3)cc2)ccc1=O"
value = "7.00 to 10.00"

[[record]]
chemical_string = "O=c1ccc(-c2ccc(OCCCN3CCCCC3)c(F)c2)nn1-c1ccccc1"
value = "7.00 to 10.00"

